experimental system: human FXR-LBD (GST-FXR-LBD) (Homo sapiens)
Construct: the human FXR-LBD (residues 234–472) was expressed as a GST fusion protein GST-FXR-LBD; made in house; host or cells: E. coli BL21(DE3)
protocol description: HTRF coactivator recruitment assay, antagonist mode (in the presence of 50 μM CDCA)
Format: biochemical
setup conditions: 1.95 μM compound + 50 μM CDCA; replicates; read-out: Relative antagonist activity (%)
test readout: activity at 1.95 µM (%)
I only need the number, in %, no unit after it.

Which value of activity at 1.95 µM has been reported for Oc1cc(Cl)ccc1Oc1ccc(Cl)cc1Cl in the records?
91.4

Would you mind telling me what activity at 1.95 µM value was observed for Clc1ccc(COC(Cn2ccnc2)c2ccc(Cl)cc2Cl)c(Cl)c1 (stereo not drawn) ?
96.5

Sample O=P(Oc1ccccc1)(Oc1ccccc1)Oc1ccccc1 [TPHP, triphenyl phosphate] — what was its activity at 1.95 µM?
97.2

Can you look up the measured activity at 1.95 µM of O=C1Nc2ccc(Cl)cc2[C@@](C#CC2CC2)(C(F)(F)F)O1 for me?
101

So what does the record say about activity at 1.95 µM for CC(=O)c1cc2c(cc1C)C(C)(C)C(C)CC2(C)C (stereo not drawn) ?
96.2

Which activity at 1.95 µM reading was recorded for the molecule CCCCCCCC/C=C\CCCCCCCC(=O)NCCO [OEA, oleoyl ethanolamide] ?
114

###

experimental system: FXR (pCDNA3.1-hFXR, FXRE-luc) (Homo sapiens)
Construct: host or cells: HEK 293T
protocol description: cell-based
Format: cell-based
setup conditions: HEK 293T cell-based DLR assay; read-out: IC50, inhibition of FXR transcriptional activity
test readout: IC50 (nM)
Write down the numeric answer in nM and omit the unit.

Fill in the blank: the reported IC50 of COc1cccc(Cn2cc(C(=O)Nc3ccc(C)c(S(=O)(=O)N4CCOCC4)c3)c(-c3ccc(C)cc3)n2)c1 [DY268] is ____.
250

###

experimental system: FXR (pCDNA3.1-hFXR, FXRE-luc) (Homo sapiens, UniProt Q96RI1)
Construct: host or cells: HEK 293T
Sequence (Q96RI1 whole entry): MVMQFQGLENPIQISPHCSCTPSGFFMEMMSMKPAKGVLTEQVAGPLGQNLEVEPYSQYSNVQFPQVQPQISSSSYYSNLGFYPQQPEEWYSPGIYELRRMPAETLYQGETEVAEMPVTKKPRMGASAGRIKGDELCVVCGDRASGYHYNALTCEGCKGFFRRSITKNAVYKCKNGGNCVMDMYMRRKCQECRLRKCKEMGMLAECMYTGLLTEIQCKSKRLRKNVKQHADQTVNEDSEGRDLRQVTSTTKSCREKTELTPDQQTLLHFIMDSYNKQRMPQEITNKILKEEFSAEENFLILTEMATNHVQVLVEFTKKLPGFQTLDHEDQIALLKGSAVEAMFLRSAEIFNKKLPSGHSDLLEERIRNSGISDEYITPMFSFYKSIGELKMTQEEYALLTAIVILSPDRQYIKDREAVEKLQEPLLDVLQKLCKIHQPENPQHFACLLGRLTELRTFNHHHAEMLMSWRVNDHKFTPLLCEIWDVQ
protocol description: cell-based
Type: cell-based
test readout: pIC50
Remember, pIC50 is on a log scale: it is -log10 of the molar concentration.

Looking for the measured pIC50 of O=P(Oc1ccccc1)(Oc1ccccc1)Oc1ccccc1 [TPHP, triphenyl phosphate] , can you help?
4.56

###

protocol description: Analysis of TPHP in mice (serum, liver, ileum) by UPLC-MS/MS
Type: in vivo, C57BL/6N mice
setup conditions: male, C57BL/6N, mouse, liver; TPHP-H: 50 mg/kg daily oral gavage 35 d; read-out: TPHP concentration in liver
test readout: concentration at 35 d (ng/g)
All answers are understood in ng/g, so give the number only.

Item O=P(Oc1ccccc1)(Oc1ccccc1)Oc1ccccc1 [TPHP, triphenyl phosphate] has what recorded concentration at 35 d?
12.9

###

protocol description: Analysis of TPHP in mice (serum, liver, ileum) by UPLC-MS/MS
Type: in vivo, C57BL/6N mice
setup conditions: mouse, serum; TPHP-L: 10 mg/kg daily oral gavage 35 d, male C57BL/6N mice; read-out: TPHP concentration in serum
test readout: concentration at 35 d (ng/mL)
Answer with a number only, understood to be in ng/mL.

Form field: reported concentration at 35 d of O=P(Oc1ccccc1)(Oc1ccccc1)Oc1ccccc1 [TPHP, triphenyl phosphate]
0.32

###

experimental system: human FXR-LBD (GST-FXR-LBD) (Homo sapiens)
Construct: the human FXR-LBD (residues 234–472) was expressed as a GST fusion protein GST-FXR-LBD; made in house; host or cells: E. coli BL21(DE3)
protocol description: HTRF coactivator recruitment assay, agonist mode
Type: biochemical
setup conditions: 50 μM compound; standardized against positive control CDCA (50 μM = 100%)
Where a name gives a salt, the structure may show the parent alone.
Note to self: values exactly at 0.2% are t. So Relative activity, agonist mode at or above 0.2% is t, below is f.

Quick check: does Clc1ccc(COC(Cn2ccnc2)c2ccc(Cl)cc2Cl)c(Cl)c1 (stereo not drawn) have Relative activity, agonist mode greater than or equal to 0.2%?
f

Dear colleague, could you confirm whether CCCCOC(=O)CC(CC(=O)OCCCC)(OC(C)=O)C(=O)OCCCC [ATBC, acetyl tributyl citrate] has Relative activity, agonist mode at or above 0.2%?
t

Has CC(C)(C)CC(C)(C)c1ccc(O)c(-n2nc3ccccc3n2)c1 a recorded Relative activity, agonist mode greater than or equal to 0.2%?
f

Textbook exercise: given the entry CC(C)(C)c1cc(C=O)cc(C(C)(C)C)c1O [BHT-C, 3,5-Ditert-butyl-4-hydroxybenzaldehyde] , state whether its Relative activity, agonist mode is greater than or equal to 0.2%.
f

Given the entry CCCCCCCCCCCCCCCC(=O)NCCO [PEA, palmitoyl ethanolamide] , answer whether its Relative activity, agonist mode meets or surpasses 0.2%.
t

Item O=C1Nc2ccc(Cl)cc2[C@@](C#CC2CC2)(C(F)(F)F)O1 with Relative activity, agonist mode of 0.2% or above?
t

###

protocol description: Analysis of TPHP in mice (serum, liver, ileum) by UPLC-MS/MS
Assay type: in vivo, C57BL/6N mice
setup conditions: male, C57BL/6N, mouse, ileum; TPHP-H: 50 mg/kg daily oral gavage 35 d; read-out: TPHP concentration in ileum
test readout: concentration at 35 d (ng/g)
The figure you give is taken to be in ng/g; do not add the unit.

// query concentration at 35 d value for entry O=P(Oc1ccccc1)(Oc1ccccc1)Oc1ccccc1 [TPHP, triphenyl phosphate]
13.2

###

Please respond with reported activity at 62.5 µM for every item in the list.
experimental system: human FXR-LBD (GST-FXR-LBD) (Homo sapiens, UniProt Q96RI1)
Construct: the human FXR-LBD (residues 234–472) was expressed as a GST fusion protein GST-FXR-LBD; made in house; host or cells: E. coli BL21(DE3)
Sequence (Q96RI1 248-486): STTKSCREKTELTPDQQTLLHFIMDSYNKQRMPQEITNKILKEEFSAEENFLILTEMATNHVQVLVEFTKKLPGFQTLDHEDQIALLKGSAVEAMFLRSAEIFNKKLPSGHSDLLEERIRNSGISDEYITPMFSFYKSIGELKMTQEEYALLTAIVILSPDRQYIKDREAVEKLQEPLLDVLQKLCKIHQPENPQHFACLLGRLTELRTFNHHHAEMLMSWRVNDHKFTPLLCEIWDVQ
protocol description: HTRF coactivator recruitment assay, antagonist mode (in the presence of 50 μM CDCA)
Format: biochemical
setup conditions: 62.50 μM compound + 50 μM CDCA; replicates; read-out: Relative antagonist activity (%)
I only need the number, in %, no unit after it.

Fill in: activity at 62.5 µM of O=C1Nc2ccc(Cl)cc2[C@@](C#CC2CC2)(C(F)(F)F)O1 [EFV, efavirenz] is ___
20.8

Can you share its activity at 62.5 µM? I mean this compound: Oc1cc(Cl)ccc1Oc1ccc(Cl)cc1Cl [TLS, triclosan]
4.81

Tell me the measured activity at 62.5 µM of CCCCCCCC/C=C\CCCCCCCC(=O)NCCO [OEA, oleoyl ethanolamide] , please.
101

Data request, read-out activity at 62.5 µM, for CC(=O)c1cc2c(cc1C)C(C)(C)C(C)CC2(C)C (stereo not drawn) [AHTN, tonalid]
61.4

I'd like to know its activity at 62.5 µM. The compound in question is O=P(Oc1ccccc1)(Oc1ccccc1)Oc1ccccc1 [TPHP, triphenyl phosphate]
76.5

Give its activity at 62.5 µM value. Item: Clc1ccc(COC(Cn2ccnc2)c2ccc(Cl)cc2Cl)c(Cl)c1 (stereo not drawn) [MCZ, miconazole]
15.9

###

experimental system: human FXR-LBD (GST-FXR-LBD) (Homo sapiens)
Construct: the human FXR-LBD (residues 234–472) was expressed as a GST fusion protein GST-FXR-LBD; made in house; host or cells: E. coli BL21(DE3)
protocol description: HTRF coactivator recruitment assay, antagonist mode (in the presence of 50 μM CDCA)
Type: biochemical
setup conditions: 31.25 μM compound + 50 μM CDCA; replicates; read-out: Relative antagonist activity (%)
Consider the following compounds; for each one, report its activity at 31.25 µM.
Record the value in %, omitting the unit from your answer.

Using the record for Clc1ccc(COC(Cn2ccnc2)c2ccc(Cl)cc2Cl)c(Cl)c1 (stereo not drawn) [MCZ, miconazole] , report its activity at 31.25 µM.
31.7

Please give the measured activity at 31.25 µM for this compound: O=P(Oc1ccccc1)(Oc1ccccc1)Oc1ccccc1 [TPHP, triphenyl phosphate]
87.3

I am curious: what activity at 31.25 µM value has been reported for CCCCCCCC/C=C\CCCCCCCC(=O)NCCO [OEA, oleoyl ethanolamide] ?
102

Reported activity at 31.25 µM, compound Oc1cc(Cl)ccc1Oc1ccc(Cl)cc1Cl [TLS, triclosan] : ____
34.6

Consider the compound O=C1Nc2ccc(Cl)cc2[C@@](C#CC2CC2)(C(F)(F)F)O1 [EFV, efavirenz] and give its measured activity at 31.25 µM.
61.1

For the compound CC(=O)c1cc2c(cc1C)C(C)(C)C(C)CC2(C)C (stereo not drawn) [AHTN, tonalid] , what activity at 31.25 µM is on record?
80.9

###

protocol description: Analysis of TPHP in mice (serum, liver, ileum) by UPLC-MS/MS
Format: in vivo, C57BL/6N mice
setup conditions: mouse, serum; TPHP-H: 50 mg/kg daily oral gavage 35 d, male C57BL/6N mice; read-out: TPHP concentration in serum
test readout: concentration at 35 d (ng/mL)
Hi! Could you send only the number? It should be in ng/mL, unit omitted.

# get_value(readout='concentration at 35 d', item= O=P(Oc1ccccc1)(Oc1ccccc1)Oc1ccccc1 [TPHP, triphenyl phosphate] )
0.79

Cited source: paper PMC12010937
